System: HAdV-C2
Experiment: fluorescence-based plaque-forming assay, A549 cells
Assay type: cell-based, human adenovirus
Conditions: Human adenovirus sp.; HAdV-C2 in A549, fixation 4 dpi, read-out Hexon, plaque numbers
Experimental: Per 96-well plate, 15,000 A549 cells, 10,000 HeLa cells, 30,000 HBECs, 30,000 HCE cells, or 30,000 CMT-93 cells were seeded in 100 μl of the respective supplemented medium and allowed to settle for 1 h at room temperature (RT) prior to cell culture incubation at 37°C with 5% CO2 and 95% humidity. […] Plates were imaged on either an IXM-XL or an IXM-C automated high-throughput fluorescence microscope (Molecular Devices, San Jose, CA, USA) using a 4× objective in wide-field mode. […]
pEC50: −log10 of the molar value. Where a name gives a salt, the structure may show the parent alone.
readout label: pEC50

1) Cc1c(O)cccc1C(=O)N[C@@H](CSc1ccccc1)[C@H](O)CN1C[C@H]2CCCC[C@H]2C[C@H]1C(=O)NC(C)(C)C [Nelfinavir, Nelfinavir mesylate]    6.62

----------
system: HAdV-B35-pIX-FS2A-GFP; experiment: fluorescence-based plaque-forming assay, HBEC; type: cell-based, human adenovirus; settings: Human adenovirus sp.
Counter-ions that a name gives are not always drawn.
readout label: EC50 (µM)

1. Cc1c(O)cccc1C(=O)N[C@@H](CSc1ccccc1)[C@H](O)CN1C[C@H]2CCCC[C@H]2C[C@H]1C(=O)NC(C)(C)C [Nelfinavir, Nelfinavir mesylate]    6.99

----------
system: HAdV-C2-dE3B-GFP-dADP; assay: fluorescence-based plaque-forming assay, A549 cells; type: cell-based, human adenovirus; settings: Human adenovirus sp., A549, HAdV-C2-dE3B-GFP-dADP in A549, fixation 5 dpi, read-out Hexon, plaque numbers
Structures can show the parent of a compound that is named as a salt.
readout label: EC50 (nM)

1. Cc1c(O)cccc1C(=O)N[C@@H](CSc1ccccc1)[C@H](O)CN1C[C@H]2CCCC[C@H]2C[C@H]1C(=O)NC(C)(C)C [Nelfinavir, Nelfinavir mesylate]    2880

----------
tested on: HAdV-C2-dE3B-GFP; test: fluorescence-based plaque-forming assay, HBEC; format: cell-based, human adenovirus; settings: Human adenovirus sp.
Structures can show the parent of a compound that is named as a salt.
readout label: EC50 (nM)

1) Cc1c(O)cccc1C(=O)N[C@@H](CSc1ccccc1)[C@H](O)CN1C[C@H]2CCCC[C@H]2C[C@H]1C(=O)NC(C)(C)C [Nelfinavir, Nelfinavir mesylate]    530

----------
test system: HAdV-D37; assay: fluorescence-based plaque-forming assay, A549 cells; format: cell-based, human adenovirus; details: Human adenovirus sp.; HAdV-D37 in A549, fixation 5 dpi, read-out Hexon, plaque numbers
Counter-ions that a name gives are not always drawn.
readout label: EC50

1) Cc1c(O)cccc1C(=O)N[C@@H](CSc1ccccc1)[C@H](O)CN1C[C@H]2CCCC[C@H]2C[C@H]1C(=O)NC(C)(C)C [Nelfinavir, Nelfinavir mesylate]    16.7 µM

----------
system: HAdV-C2-dE3B-GFP-dADP; assay: fluorescence-based plaque-forming assay, A549 cells; assay type: cell-based, human adenovirus; settings: Human adenovirus sp., A549, HAdV-C2-dE3B-GFP-dADP in A549, fixation 4 dpi (96 hpi), read-out GFP, plaque numbers
pEC50: −log10 of the molar value. Counter-ions that a name gives are not always drawn.
readout label: pEC50

1. Cc1c(O)cccc1C(=O)N[C@@H](CSc1ccccc1)[C@H](O)CN1C[C@H]2CCCC[C@H]2C[C@H]1C(=O)NC(C)(C)C [Nelfinavir, Nelfinavir mesylate]    5.24

----------
tested on: MAdV-3-pIX-FS2A-GFP; experiment: fluorescence-based plaque-forming assay, CMT-93 cells; format: cell-based, mouse adenovirus; conditions: Murine mastadenovirus A, CMT93
Where a name gives a salt, the structure may show the parent alone.
readout label: EC50 (µM)

1) Cc1c(O)cccc1C(=O)N[C@@H](CSc1ccccc1)[C@H](O)CN1C[C@H]2CCCC[C@H]2C[C@H]1C(=O)NC(C)(C)C [Nelfinavir, Nelfinavir mesylate]    8.7

----------
test system: HAdV-B3-pIX-FS2A-GFP; assay: fluorescence-based plaque-forming assay, HBEC; type: cell-based, human adenovirus; conditions: Human adenovirus sp.
Where a name gives a salt, the structure may show the parent alone.
readout label: EC50 (µM)

1) Cc1c(O)cccc1C(=O)N[C@@H](CSc1ccccc1)[C@H](O)CN1C[C@H]2CCCC[C@H]2C[C@H]1C(=O)NC(C)(C)C [Nelfinavir, Nelfinavir mesylate]    6.41
